target: Receptor-type tyrosine-protein kinase FLT3 (Homo sapiens) (UniProt P36888); details: at 1 µM;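 also: values are mean percent inhibition of FLT3 kinase activity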
Sequence (P36888 whole entry): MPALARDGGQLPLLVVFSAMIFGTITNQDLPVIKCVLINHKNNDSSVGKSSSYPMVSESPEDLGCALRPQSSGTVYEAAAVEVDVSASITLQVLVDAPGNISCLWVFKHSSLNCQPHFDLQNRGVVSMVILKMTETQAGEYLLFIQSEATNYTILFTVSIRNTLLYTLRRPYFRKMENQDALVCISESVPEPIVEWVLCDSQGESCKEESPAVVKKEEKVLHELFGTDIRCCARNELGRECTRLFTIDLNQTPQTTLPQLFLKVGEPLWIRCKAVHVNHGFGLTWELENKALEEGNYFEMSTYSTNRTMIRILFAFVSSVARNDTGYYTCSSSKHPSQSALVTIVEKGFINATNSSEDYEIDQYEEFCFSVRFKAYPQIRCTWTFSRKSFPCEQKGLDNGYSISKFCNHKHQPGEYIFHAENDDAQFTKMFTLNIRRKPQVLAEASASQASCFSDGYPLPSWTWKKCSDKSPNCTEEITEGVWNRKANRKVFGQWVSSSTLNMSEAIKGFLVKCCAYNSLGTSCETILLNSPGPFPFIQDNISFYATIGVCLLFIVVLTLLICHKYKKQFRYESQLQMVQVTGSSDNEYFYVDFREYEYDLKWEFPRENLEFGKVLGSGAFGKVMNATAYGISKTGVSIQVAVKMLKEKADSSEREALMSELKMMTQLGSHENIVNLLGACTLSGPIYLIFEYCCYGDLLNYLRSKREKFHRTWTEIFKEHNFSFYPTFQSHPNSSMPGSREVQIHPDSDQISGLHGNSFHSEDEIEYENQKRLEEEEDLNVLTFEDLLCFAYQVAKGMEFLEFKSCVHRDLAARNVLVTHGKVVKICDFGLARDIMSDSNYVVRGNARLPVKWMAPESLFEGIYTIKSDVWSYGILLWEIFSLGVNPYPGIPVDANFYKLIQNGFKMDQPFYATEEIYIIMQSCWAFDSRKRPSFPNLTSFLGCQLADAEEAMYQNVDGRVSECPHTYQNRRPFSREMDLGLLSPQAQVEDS
List of inhibition values.

COMPOUND	inhibition
NC(=O)c1sc(-n2cnc3ccccc32)cc1OCc1ccccc1Br	1%
FC(F)(F)c1ccc(-c2nn3ncccc3c2-c2ccnc(Nc3ccc4c(c3)OCCO4)n2)cc1	0.28%
COc1cc2ncnc(Nc3ccc(C)c(O)c3)c2cc1OC	3.03%
COc1ccc2ncnc(Nc3ccc(OCc4ccccc4)cc3)c2c1	2.85%
CCn1c(-c2nonc2N)nc2ccc(F)cc21	2.44%
CCS(=O)(=O)c1ccc(OC)c(Nc2ncc(-c3cccc(OC)c3)o2)c1	68%
CN1CCN(C(=O)c2ccc(NC(=O)Nc3ccc(N(C)c4ccnc(Nc5ccc(CS(C)(=O)=O)cc5)n4)cc3)cc2)CC1	83.9%
Nc1nccc(C#Cc2cncnc2Nc2ccc(OCc3cccc(F)c3)c(Cl)c2)n1	3.87%
Oc1cccc(-c2nc(-c3ccccc3)[nH]c2-c2ccncc2)c1	19.5%
COC(=O)c1ccc2c(c1)C(=Cc1cc(Br)c(O)c(Br)c1)C(=O)N2	7.6%
N#Cc1c(NC(=O)c2ccccc2F)sc2c1CCCC2	-1.06%
Cc1nc(-c2ccccc2)n2nc(NCCCN3CCOCC3)ncc12	4.33%
NS(=O)(=O)c1ccc(Nc2cc(-c3cccc(O)c3)n[nH]2)cc1	23.2%
ON=C1CCc2cc(-c3nc(C4CCNCC4)[nH]c3-c3ccncc3)ccc21	0.24%
O=S(=O)(CCOCc1ccc(-c2ccc3ncnc(Nc4ccc(OCc5cccc(F)c5)c(Cl)c4)c3c2)o1)c1ccccc1	2.25%
C[C@@H](Oc1cc(-n2cnc3ccc(OCC4CCN(C)CC4)cc32)sc1C(N)=O)c1ccccc1C(F)(F)F	11%
NS(=O)(=O)c1cccc(Nc2cc(-c3ccc(F)cc3)n[nH]2)c1	67.1%
O=C1Nc2ccccc2/C1=C/Nc1ccc2[nH]c(=O)[nH]c2c1	74%
NS(=O)(=O)c1ccc(-c2cc3ccncc3cc2OCc2ccccc2)cc1	2.5%
COc1cc2ncn(-c3cc(OCc4ccccc4S(C)(=O)=O)c(C#N)s3)c2cc1OC	11.6%
COc1cc(/C=N/Nc2ncnc3c2cnn3C(C)C)ccc1O	22.7%
COC(=O)Nc1nc2cc(Oc3ccc(NC(=O)Nc4cccc(Br)c4)cc3)ccc2[nH]1	56.7%
NC(=O)c1cccc(Nc2nccc(Nc3cccc(F)c3)n2)c1	16.5%
CN(C)C(=O)O[C@H]1CN[C@H](C#Cc2cc3ncnc(Nc4ccc(OCc5cccc(F)c5)c(Cl)c4)c3s2)C1	0.66%
CCS(=O)(=O)c1ccc(OC)c(Nc2nccc(N(C)c3ccc4c(C)n[nH]c4c3)n2)c1	6.74%
CCOc1nccc2c1nc(-c1nonc1N)n2CC	1.3%
CC(C)c1ccc(Nc2nccc(-c3cnn4ncccc34)n2)cc1	61.1%
CC(C)c1ccc2c(c1)NC(=O)/C2=N/Nc1ccc(S(N)(=O)=O)cc1	43.7%
Cc1ccc2c(-c3ccnc(Nc4cccc(C(F)(F)F)c4)n3)c(-c3ccccc3)nn2n1	10.2%
CCCN1CCCC(c2ccc(Nc3nc(Nc4cc(F)ccc4C(N)=O)c4cc[nH]c4n3)c(OC)c2)C1 (stereo not given)	13.1%
Cc1ccc2c(-c3ccnc(Nc4ccc5c(c4)OCCO5)n3)c(-c3ccc(C(F)(F)F)cc3)nn2n1	0.3%
CN(C)CCCn1c(-c2nonc2N)nc2cnccc21	1.85%
N#Cc1cccc(Nc2nccc(-c3cnn4ncccc34)n2)c1	68%
Cc1ccc(NC(=O)CC2CC2)cc1-c1ccc(C(=O)NCC2CC2)cc1	3.21%
Cc1ccc(O)cc1Nc1ccnc2ccc(S(C)(=O)=O)cc12	4.94%
